meta.source: PubChem BioAssay

test name: promoters of myeloid differentiation in arrested cells, primary screen, cell-based, GFP/MAC1 double positive, flow cytometry, validation set (AID 588685);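 further: compound exposure lasts four days before antibody staining and flow analysis; 0% = DMSO wells and 100% = 5 µM fulvestrant positive control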
test settings: ER-HoxA9 marrow cells, active compounds read high, normalized: vehicle 0, fulvestrant 100
Peptide text beside a SMILES is read from it. * marks the point of attachment. Boc = CC(C)(C)OC(=O)*
recorded endpoint: differentiation response (%)
The reply should contain only the number, in %.

Use these answered entries as a reference point.
INSERT INTO measurements (molecule, obs_value) VALUES
  ('CCOc1ccc(C(=O)Nc2ccc(N3CCN(C(C)=O)CC3)cc2)cc1[N+](=O)[O-]', -1.64),
  ('CC(C)CC(NC(=O)C1CCCN1C(=O)OC(C)(C)C)C(=O)NCC(N)=O (stereo not drawn) (Boc-Pro-Leu-Gly-NH2; configuration not given here)', 19.2);

Q) Could you tell me which differentiation response is on file for Nc1ccc(S(=O)(=O)c2ccc(N)cc2)cc1 ?
A) -5.05

---

test name: LAP4-GFP expression modulators in yeast, confirmation, cell-based, cherry picks, flow cytometry, mother/daughter gates (AID 2271);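 further: ratio of sample to DMSO plate mean so 100% equals DMSO level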
test settings: S. cerevisiae LAP4-GFP strain, 3 h, at 10 µM, 100 means same as DMSO control
Activity calls are given as the source filed them.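 How the source made its calls: active means GFP response above 150% of the DMSO control; inconclusive means fewer than 70 events counted in any yeast strain; inactive means the rest.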
Allowed answers: TRUE = active, FALSE = inactive

The examples below pair each entry with its known result.
INSERT INTO assay_data (molecule, class_assignment) VALUES
  ('Oc1c(N=Nc2ccccn2)ccc2ccccc12', 'FALSE'),
  ('O=C1CC(Sc2nnnn2C2CCCCC2)C(=O)N1c1ccccc1 (configuration not stated)', 'FALSE'),
  ('Cc1cccc(N2C(=O)C(Cl)=C(Nc3c(C)n(C)n(-c4ccccc4)c3=O)C2=O)c1C', 'FALSE'),
  ('COc1ccc(NC(=S)N2CCC(c3ccccc3)C2)cc1 (configuration not stated)', 'FALSE'),
  ('Cc1ccn2c(NC(=O)c3ccco3)c(-c3ccccc3)nc2c1', 'FALSE');

Q) What is the recorded call for this molecule in the test? CSc1ccc(/C=C/C(=O)c2ccc(NC(=O)C(C)C)cc2)cc1
A) FALSE

Q) COc1cc(/C=C2/N=C(c3ccccc3)OC2=O)c(F)cc1OCc1ccccc1 ?
A) FALSE

Q) CCOC(=O)CS(=O)(=O)c1nc(-c2ccc(F)cc2)cc(C(F)(F)F)n1 ?
A) TRUE

Q) O=C(Nc1c(-c2ccccc2)nc2c(Br)cc(Br)cn12)c1ccco1 ?
A) FALSE

---

tested target: Beta-adrenergic receptor kinase 1 (Homo sapiens) (UniProt P25098)
Sequence (P25098 whole entry, looked up): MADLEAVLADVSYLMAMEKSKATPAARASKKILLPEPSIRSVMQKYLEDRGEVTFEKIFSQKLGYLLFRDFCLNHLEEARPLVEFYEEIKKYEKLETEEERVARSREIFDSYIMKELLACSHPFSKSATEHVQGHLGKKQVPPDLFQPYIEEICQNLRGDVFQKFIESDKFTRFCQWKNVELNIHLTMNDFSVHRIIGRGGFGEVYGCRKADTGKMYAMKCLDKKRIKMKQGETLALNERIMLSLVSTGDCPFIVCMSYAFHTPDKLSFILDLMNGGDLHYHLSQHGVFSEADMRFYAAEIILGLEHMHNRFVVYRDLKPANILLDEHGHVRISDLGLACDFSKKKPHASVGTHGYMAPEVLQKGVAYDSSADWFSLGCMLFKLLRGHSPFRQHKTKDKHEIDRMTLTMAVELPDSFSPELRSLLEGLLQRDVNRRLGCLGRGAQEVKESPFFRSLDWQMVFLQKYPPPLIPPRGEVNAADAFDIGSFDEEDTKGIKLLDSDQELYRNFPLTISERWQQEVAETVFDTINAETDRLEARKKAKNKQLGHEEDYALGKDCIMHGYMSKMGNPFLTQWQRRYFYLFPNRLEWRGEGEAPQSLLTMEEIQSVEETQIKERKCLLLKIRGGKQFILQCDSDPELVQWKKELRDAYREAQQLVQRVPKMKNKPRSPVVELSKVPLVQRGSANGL
test name: GRK2 binders displacing RNA aptamer, biochemical, validation, human GRK2, bead flow cytometry (AID 488806)
test settings: bead-bound GRK2, FAM-aptamer displacement, at 10 µM, active compounds read high
Overview of reported aptamer binding inhibition across a group of compounds:
The reply should contain only the number, in %.

INSERT INTO results (compound, recorded_endpoint, unit_descriptor, obs_value) VALUES
  ('COc1ccc(S(=O)(=O)N2CCN(C(=O)COc3ccc4c(C)cc(=O)oc4c3)CC2)cc1', 'aptamer binding inhibition', '%', -1);

Q) Could you tell me which aptamer binding inhibition is on file for CC(=O)CCc1oc2ccccc2c1-c1ccccc1 ?
A) -3

Q) Nc1c2c(nc3ccccc13)CCCC2 ?
A) 2

Q) CC[C@]1(O)C[C@@H]2CN(CCc3c([nH]c4ccccc34)[C@@](C(=O)OC)(c3cc4c(cc3OC)N(C)[C@H]3[C@@](O)(C(=O)OC)[C@H](OC(C)=O)[C@]5(CC)C=CCN6CC[C@]43[C@@H]65)C2)C1 ?
A) -13

Q) CCNCCC(CCC(C)C)c1ccc2c(c1)OCO2 (centres undefined) ?
A) -1

Q) CN(Cc1ccccc1)CC(O)COc1ccc(CNCc2cccnc2)cc1 (centres undefined) ?
A) -6

Q) CCC(C)NCCOCCOc1ccc(Cl)c2ccccc12 (centres undefined) ?
A) -5

Q) O=C(O)CCSc1nc2ccccc2s1 ?
A) 7

Q) C#CCN(C)CCCOc1ccc(Cl)cc1Cl ?
A) 0

Q) CCOC(=O)C1=C(N)Oc2c(oc(CO)cc2=O)C1c1ccc(F)c(F)c1 (centres undefined) ?
A) 1

Q) O=C(Nc1cccc(-c2nc3ncccc3o2)c1)c1ccccc1 ?
A) 1

Q) COc1cc2c(cc1OC)C(c1cc(OC)c(OC)c(OC)c1)NCC2 (centres undefined) ?
A) 2

Q) CC#C[C@]1(O)CC[C@H]2[C@@H]3CCC4=CC(=O)CCC4=C3[C@@H](c3ccc(N(C)C)cc3)C[C@@]21C ?
A) 9

Q) CC(=O)N1CC23C=CC(CC2CC12CCCCCC2)O3 (centres undefined) ?
A) 8

Q) c1cc2c(cc1C1CCCCC1)c1c3n2CCN=C3CCC1 ?
A) -9

Q) COc1cccc(OCc2cc(C3Nc4ccccc4C(=O)N3Cc3ccco3)ccc2OC)c1 (centres undefined) ?
A) 4

Q) CC1(C)CC(CC(=O)Nc2nccs2)(c2ccccc2)CCO1 (centres undefined) ?
A) -7

Q) COc1ccc(C2C3C(C)=NN=C3CC(C)(O)C2C(C)=O)cc1 (centres undefined) ?
A) 6

Q) CCc1cc2c(=O)c(-c3ccc(F)cc3)c(C)oc2cc1OCC(=O)O ?
A) -3
